test: The drug is tested on Z-012 corresponding to metagenome with ENA study accession number: PRJEB37062 and ENA sample accession number: ERS12561812 for biotransformation under anaerobic condition. The drug concentrations were measured over 9 timepoints collected between 0 and 24 hours of incubation by liquid-chromatography-coupled mass spectrometry (LC–MS); details: 2 µM; also: call rule not given here
measure name: Bacterial Biotransformation

Some solved cases for reference:
COc1ccc(CCN(C)CCCC(C#N)(c2ccc(OC)c(OC)c2)C(C)C)cc1OC (stereo not given): Compound metabolized
CO[C@]12C[C@@H](COC(=O)c3cncc(Br)c3)CN(C)[C@@H]1Cc1cn(C)c3cccc2c13 [NICERGOLINE]: Compound NOT metabolized
COc1ccc2[nH]c([S+]([O-])Cc3ncc(C)c(OC)c3C)nc2n1 (stereo not given) [TENATOPRAZOLE]: Compound metabolized
CN1CCN(C(=O)O[C@H]2c3nccnc3C(=O)N2c2ccc(Cl)cn2)CC1 [ESZOPICLONE]: Compound NOT metabolized
CN1CC(=O)N2[C@H](c3ccc4c(c3)OCO4)c3[nH]c4ccccc4c3C[C@@H]2C1=O: Compound metabolized

*Q* Look up Bacterial Biotransformation for this compound: CC(C)NCC(O)c1ccc(NS(C)(=O)=O)cc1 (stereo not given) [SOTALOL]
*A* Compound NOT metabolized

*Q* Bacterial Biotransformation lookup needed for CC(C)OC(=O)C(C)(C)Oc1ccc(C(=O)c2ccc(Cl)cc2)cc1 [FENOFIBRATE] , thanks.
*A* Compound metabolized

*Q* Sample Cc1ccc(S(=O)(=O)NC(=O)NN2CCCCCC2)cc1 [TOLAZAMIDE] — what was its Bacterial Biotransformation?
*A* Compound metabolized

*Q* Give the measured Bacterial Biotransformation of O=c1n(CCCN2CCN(c3cccc(Cl)c3)CC2)nc2ccccn12 [TRAZODONE] .
*A* Compound NOT metabolized

*Q* Name the reported Bacterial Biotransformation value associated with the compound CCCCCOC(=O)Nc1nc(=O)n([C@@H]2O[C@H](C)[C@@H](O)[C@H]2O)cc1F [CAPECITABINE]
*A* Compound metabolized

*Q* What does the record list as Bacterial Biotransformation for CCCc1nc2c(C)cc(-c3nc4ccccc4n3C)cc2n1Cc1ccc(-c2ccccc2C(=O)O)cc1 ?
*A* Compound metabolized

*Q* Bacterial Biotransformation for CCCCC1=NC2(CCCC2)C(=O)N1Cc1ccc(-c2ccccc2-c2nnn[nH]2)cc1 [IRBESARTAN] ?
*A* Compound NOT metabolized

*Q* Value lookup for Bacterial Biotransformation; key = CC(=O)CC(c1ccccc1)c1c(O)c2ccccc2oc1=O (stereo not given) [WARFARIN]
*A* Compound metabolized

*Q* Which Bacterial Biotransformation reading was recorded for the compound COc1ccccc1OCC(O)COC(N)=O (stereo not given) [METHOCARBAMOL] ?
*A* Compound NOT metabolized

*Q* Given O=c1[nH]c2ccccc2n1C1CCN(CCCC(c2ccc(F)cc2)c2ccc(F)cc2)CC1 [PIMOZIDE] , state its recorded Bacterial Biotransformation.
*A* Compound metabolized

* * *

conditions: human gut metagenome, 24 h, 2 µM
measure name: Bacterial Biotransformation

COC1=CC(=O)C[C@@H](C)[C@]12Oc1c(Cl)c(OC)cc(OC)c1C2=O: Compound metabolized
NC(CO)(CO)CO.O=C(c1ccccc1)c1ccc2n1CCC2C(=O)O (stereo not drawn): Compound metabolized
O=C(Nc1ccccc1)OCC(CN1CCCCC1)OC(=O)Nc1ccccc1 (stereo not drawn): Compound metabolized
